target: human CD33 F43A (human, UniProt P20138 18-364)
Sequence (P20138 18-364 F43A limits assumed): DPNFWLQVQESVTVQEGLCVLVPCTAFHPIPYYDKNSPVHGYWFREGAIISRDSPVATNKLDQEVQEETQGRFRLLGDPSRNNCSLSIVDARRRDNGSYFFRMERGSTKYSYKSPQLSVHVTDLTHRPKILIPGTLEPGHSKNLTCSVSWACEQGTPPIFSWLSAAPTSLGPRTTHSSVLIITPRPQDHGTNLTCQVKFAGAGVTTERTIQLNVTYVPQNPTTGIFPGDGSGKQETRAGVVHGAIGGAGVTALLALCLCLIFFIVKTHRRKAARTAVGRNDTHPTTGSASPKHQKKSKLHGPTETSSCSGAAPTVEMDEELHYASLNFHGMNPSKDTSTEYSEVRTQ
assayNotes: alanine scan, flow cytometry;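 note: HEK293-T cells transiently expressing single-residue alanine mutants of CD33 (alanine swapped to serine), antibody binding read by fluorescence in duplicate, background-subtracted, expressed relative to wild-type CD33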
experimentalEndpoint: Mean % WT Binding (% WT)
Report as a plain number; the unit % WT is understood.

Task: Could you tell me which Mean % WT Binding is on file for Refmab #1 (antibody, V domains shown, Full-length format is human IgG1 (Absolute Antibody Ab00283-10.0); The alanine scan used IgG or Fab; also called hP67.6) VH: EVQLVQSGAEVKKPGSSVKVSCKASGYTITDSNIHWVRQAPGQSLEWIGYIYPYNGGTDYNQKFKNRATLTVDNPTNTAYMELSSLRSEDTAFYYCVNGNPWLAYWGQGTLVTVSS VL: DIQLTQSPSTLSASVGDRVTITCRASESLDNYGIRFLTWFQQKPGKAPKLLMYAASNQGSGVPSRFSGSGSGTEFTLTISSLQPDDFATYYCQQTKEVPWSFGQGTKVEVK ?
Output: 66.3

Task: Could you tell me which Mean % WT Binding is on file for Refmab #3 (antibody, V domains shown, Full-length format is human IgG1 Fc silent (PG-LALA); The alanine scan used IgG or Fab) VH: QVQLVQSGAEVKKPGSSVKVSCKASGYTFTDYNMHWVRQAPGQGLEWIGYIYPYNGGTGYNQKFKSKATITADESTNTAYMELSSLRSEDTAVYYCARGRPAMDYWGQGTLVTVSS VL: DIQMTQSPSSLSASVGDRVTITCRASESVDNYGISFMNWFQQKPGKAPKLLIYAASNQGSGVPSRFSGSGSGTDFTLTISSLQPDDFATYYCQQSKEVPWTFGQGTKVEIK ?
Output: 49.3

Task: Could you tell me which Mean % WT Binding is on file for Refmab #2 (antibody, V domains shown, Full-length format is human IgG1 Fc silent (PG-LALA); The alanine scan used IgG or Fab) VH: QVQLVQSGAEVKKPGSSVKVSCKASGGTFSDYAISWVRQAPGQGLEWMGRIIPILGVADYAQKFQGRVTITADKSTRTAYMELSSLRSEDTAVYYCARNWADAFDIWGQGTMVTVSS VL: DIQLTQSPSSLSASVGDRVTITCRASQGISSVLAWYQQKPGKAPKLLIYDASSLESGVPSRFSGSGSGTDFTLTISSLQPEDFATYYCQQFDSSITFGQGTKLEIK ?
Output: 10.6

Task: Could you tell me which Mean % WT Binding is on file for Refmab #4 (antibody, V domains shown, Full-length format is human IgG1 Fc silent (PG-LALA); The alanine scan used IgG or Fab) VH: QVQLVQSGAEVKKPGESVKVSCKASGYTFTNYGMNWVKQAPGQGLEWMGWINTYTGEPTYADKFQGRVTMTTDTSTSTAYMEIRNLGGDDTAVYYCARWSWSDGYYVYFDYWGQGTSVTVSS VL: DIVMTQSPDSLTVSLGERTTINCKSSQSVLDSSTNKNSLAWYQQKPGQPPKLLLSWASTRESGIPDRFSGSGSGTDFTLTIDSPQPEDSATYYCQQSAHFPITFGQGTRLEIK ?
Output: 7.8
